# study-target: T1, Human CD3eg linker (human)
# T1 construct: Single chain: epsilon and gamma subunits of human CD3 joined by a 29-mer linker, Flag-tag at the C-terminus; also called recombinant human CD3
# T1 chain: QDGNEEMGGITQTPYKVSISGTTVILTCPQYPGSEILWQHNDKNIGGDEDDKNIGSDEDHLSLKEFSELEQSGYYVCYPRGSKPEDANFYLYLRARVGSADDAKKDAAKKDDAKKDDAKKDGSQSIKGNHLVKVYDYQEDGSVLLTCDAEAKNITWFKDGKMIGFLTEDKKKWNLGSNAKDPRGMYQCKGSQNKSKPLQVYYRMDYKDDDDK
# run-description: Biacore SPR, vs template H183/L072

binder	fold change of affinity
H183/L072 VH Q50D (antibody, name in Kabat numbering, V domains shown) VH: QVQLVESGGGLVQPGRSLRLSCAASGFTFSNAWMHWVRQAPGKGLEWVADIKDKGNAYAAYYAPSVKGRFTISRDDSKNSIYLQMNSLKTEDTAVYYCHYVHYASASTVLPAFGVDAWGQGTTVTVSS VL: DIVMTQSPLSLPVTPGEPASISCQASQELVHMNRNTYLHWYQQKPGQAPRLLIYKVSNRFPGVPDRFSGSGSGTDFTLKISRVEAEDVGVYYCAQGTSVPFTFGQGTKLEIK	0 fold
H183/L072 VH D101L (antibody, name in Kabat numbering, V domains shown) VH: QVQLVESGGGLVQPGRSLRLSCAASGFTFSNAWMHWVRQAPGKGLEWVAQIKDKGNAYAAYYAPSVKGRFTISRDDSKNSIYLQMNSLKTEDTAVYYCHYVHYASASTVLPAFGVLAWGQGTTVTVSS VL: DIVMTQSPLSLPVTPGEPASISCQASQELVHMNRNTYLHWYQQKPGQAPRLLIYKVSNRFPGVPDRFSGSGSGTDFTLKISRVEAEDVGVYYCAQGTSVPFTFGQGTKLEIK	2.3 fold
H183/L072 VH Y59E (antibody, name in Kabat numbering, V domains shown) VH: QVQLVESGGGLVQPGRSLRLSCAASGFTFSNAWMHWVRQAPGKGLEWVAQIKDKGNAYAAYEAPSVKGRFTISRDDSKNSIYLQMNSLKTEDTAVYYCHYVHYASASTVLPAFGVDAWGQGTTVTVSS VL: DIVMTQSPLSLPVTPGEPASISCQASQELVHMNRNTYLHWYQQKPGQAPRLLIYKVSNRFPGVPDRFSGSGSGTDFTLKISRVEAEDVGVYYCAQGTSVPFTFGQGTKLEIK	1.1 fold
H183/L072 VH Y59W (antibody, name in Kabat numbering, V domains shown) VH: QVQLVESGGGLVQPGRSLRLSCAASGFTFSNAWMHWVRQAPGKGLEWVAQIKDKGNAYAAYWAPSVKGRFTISRDDSKNSIYLQMNSLKTEDTAVYYCHYVHYASASTVLPAFGVDAWGQGTTVTVSS VL: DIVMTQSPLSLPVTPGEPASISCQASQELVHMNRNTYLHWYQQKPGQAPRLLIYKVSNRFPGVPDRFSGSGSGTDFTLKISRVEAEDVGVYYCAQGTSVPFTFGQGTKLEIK	0.6 fold
H183/L072 VH M34T (antibody, name in Kabat numbering, V domains shown) VH: QVQLVESGGGLVQPGRSLRLSCAASGFTFSNAWTHWVRQAPGKGLEWVAQIKDKGNAYAAYYAPSVKGRFTISRDDSKNSIYLQMNSLKTEDTAVYYCHYVHYASASTVLPAFGVDAWGQGTTVTVSS VL: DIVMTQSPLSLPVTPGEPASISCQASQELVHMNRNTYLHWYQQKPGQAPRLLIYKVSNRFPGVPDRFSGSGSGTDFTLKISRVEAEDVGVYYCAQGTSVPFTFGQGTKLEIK	0 fold
H183/L072 VH T28D (antibody, name in Kabat numbering, V domains shown) VH: QVQLVESGGGLVQPGRSLRLSCAASGFDFSNAWMHWVRQAPGKGLEWVAQIKDKGNAYAAYYAPSVKGRFTISRDDSKNSIYLQMNSLKTEDTAVYYCHYVHYASASTVLPAFGVDAWGQGTTVTVSS VL: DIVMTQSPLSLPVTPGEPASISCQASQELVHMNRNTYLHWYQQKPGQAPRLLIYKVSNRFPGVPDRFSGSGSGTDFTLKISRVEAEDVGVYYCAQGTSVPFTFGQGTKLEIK	0.6 fold
H183/L072 VH H35G (antibody, name in Kabat numbering, V domains shown) VH: QVQLVESGGGLVQPGRSLRLSCAASGFTFSNAWMGWVRQAPGKGLEWVAQIKDKGNAYAAYYAPSVKGRFTISRDDSKNSIYLQMNSLKTEDTAVYYCHYVHYASASTVLPAFGVDAWGQGTTVTVSS VL: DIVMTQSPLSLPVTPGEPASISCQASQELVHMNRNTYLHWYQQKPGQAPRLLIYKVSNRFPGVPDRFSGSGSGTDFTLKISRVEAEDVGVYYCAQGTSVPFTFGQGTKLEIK	0 fold
H183/L072 VH V63I (antibody, name in Kabat numbering, V domains shown) VH: QVQLVESGGGLVQPGRSLRLSCAASGFTFSNAWMHWVRQAPGKGLEWVAQIKDKGNAYAAYYAPSIKGRFTISRDDSKNSIYLQMNSLKTEDTAVYYCHYVHYASASTVLPAFGVDAWGQGTTVTVSS VL: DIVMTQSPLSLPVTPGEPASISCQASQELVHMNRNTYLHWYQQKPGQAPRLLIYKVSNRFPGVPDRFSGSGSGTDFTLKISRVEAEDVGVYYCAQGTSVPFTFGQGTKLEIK	1.4 fold
H183/L072 VH A54R (antibody, name in Kabat numbering, V domains shown) VH: QVQLVESGGGLVQPGRSLRLSCAASGFTFSNAWMHWVRQAPGKGLEWVAQIKDKGNRYAAYYAPSVKGRFTISRDDSKNSIYLQMNSLKTEDTAVYYCHYVHYASASTVLPAFGVDAWGQGTTVTVSS VL: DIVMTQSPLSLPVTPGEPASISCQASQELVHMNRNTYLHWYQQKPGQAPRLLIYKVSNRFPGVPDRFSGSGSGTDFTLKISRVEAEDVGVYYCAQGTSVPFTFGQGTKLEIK	1.1 fold
H183/L072 VH A56N (antibody, name in Kabat numbering, V domains shown) VH: QVQLVESGGGLVQPGRSLRLSCAASGFTFSNAWMHWVRQAPGKGLEWVAQIKDKGNAYNAYYAPSVKGRFTISRDDSKNSIYLQMNSLKTEDTAVYYCHYVHYASASTVLPAFGVDAWGQGTTVTVSS VL: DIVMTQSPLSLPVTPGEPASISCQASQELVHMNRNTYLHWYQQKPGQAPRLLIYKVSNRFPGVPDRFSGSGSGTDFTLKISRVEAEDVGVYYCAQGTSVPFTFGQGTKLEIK	0.9 fold

All figures here come from patent US20210388087A1.
